Field: IC50. Provide a value for each of the compounds that follow.
# tgt: TNIK (Homo sapiens)
# Construct: purchased Promega V4158
# assay name: ADP-Glo Kinase Assay, inhibition activity on TNIK
# Format: biochemical
# applied conditions: read-out: TNIK
Give bare numbers, in µM.

Example compounds with recorded IC50:
INSERT INTO measurements (smiles_string, unit_abbrev, numeric_value) VALUES
  ('O=C(Nc1ccc(-c2ccccc2)c2c1C(=O)NC2)c1ccc(NCCCN2CCCCC2)cc1', 'µM', 0.51),
  ('O=C(Nc1ccc(-c2cccc3ncoc23)c2c1C(=O)NC2)c1ccc(F)cc1', 'µM', 1.45);

Exercise: Supply measured IC50 of O=C(Nc1ccc(-c2cccc(F)c2Cl)c2c1C(=O)NC2)c1ccccc1 in your reply.
Solution: 8.9

====

# tgt: TNIK (Homo sapiens)
# Construct: purchased Promega V4158
# assay name: ADP-Glo Kinase Assay, inhibition activity on TNIK
# Format: biochemical
# applied conditions: read-out: TNIK
reported metric: IC50

INSERT INTO assay_data (compound, tgt, result) VALUES
  ('CN1CCN(c2ccc(C(=O)Nc3ccc(-c4ccccc4)c4c3C(=O)NC4)cc2)CC1 [Example 319]', 'TNIK (Homo sapiens)', '2.7 µM'),
  ('COc1ccccc1-c1ccc(NC(=O)c2ccc(NCCN3CCOCC3)cc2)c2c1CNC2=O [Example 326]', 'TNIK (Homo sapiens)', '0.093 µM'),
  ('O=C(Nc1ccc(-c2ccc(CN3CCCC3)s2)c2c1C(=O)NC2)c1ccccc1 [Example 195]', 'TNIK (Homo sapiens)', '> 20 µM'),
  ('O=C(Nc1ccc(-c2cccc3ncccc23)c2c1C(=O)NC2)c1ccc(F)cc1 [Example 215]', 'TNIK (Homo sapiens)', '0.24 µM'),
  ('COc1cccc(-c2ccc(NC(=O)c3ccco3)c3c2CN(C(=O)c2ccco2)C3=O)c1OC [Example 224]', 'TNIK (Homo sapiens)', '1 µM');

I would be grateful if you could provide IC50 for each of the following entries.
1. O=C(Nc1ccc(Nc2ccccc2)c2c1C(=O)NC2)c1ccc(NCCCN2CCOCC2)cc1 [Example 461]
2. O=C(Nc1ccc(-c2nccs2)c2c1C(=O)NC2)c1ccccc1 [Example 53]
3. O=C(Nc1ccc(Br)c2c1C(=O)NC2)c1ccc(NCCCN2CCCCC2)cc1 [Example 282]

Solution:
1. 0.38 µM
2. 2.34 µM
3. 1.4 µM

====

# tgt: TNIK (Homo sapiens, UniProt Q9UKE5)
# Construct: purchased Promega V4158
# Sequence (Q9UKE5 1-367 limits assumed): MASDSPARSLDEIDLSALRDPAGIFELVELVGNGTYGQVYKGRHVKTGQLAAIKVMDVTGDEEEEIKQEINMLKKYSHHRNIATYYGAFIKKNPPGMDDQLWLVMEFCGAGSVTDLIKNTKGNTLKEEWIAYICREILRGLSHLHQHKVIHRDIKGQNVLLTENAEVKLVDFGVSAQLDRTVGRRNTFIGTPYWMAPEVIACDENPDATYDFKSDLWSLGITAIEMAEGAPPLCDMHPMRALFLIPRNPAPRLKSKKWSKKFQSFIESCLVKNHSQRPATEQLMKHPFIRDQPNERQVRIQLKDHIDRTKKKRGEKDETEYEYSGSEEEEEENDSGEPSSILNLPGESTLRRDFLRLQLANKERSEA
# assay name: ADP-Glo Kinase Assay, inhibition activity on TNIK
# Assay type: biochemical
# applied conditions: read-out: TNIK
reported metric: pIC50
Give bare numbers, as −log10 of the molar value.

INSERT INTO assay_data (molecule, reported_metric, numeric_value) VALUES
  ('COc1ccccc1-c1ccc(NC(=O)c2ccccc2)c2c1CNC2=O [Example 144]', 'pIC50', 6.15),
  ('O=C(Nc1ccc(Nc2cc(C(F)(F)F)cc(C(F)(F)F)c2)c2c1C(=O)NC2)c1ccc(NCCCN2CCCC2)cc1 [Example 466]', 'pIC50', 4.85),
  ('O=C(Nc1ccc(Nc2ccccc2)c2c1C(=O)NC2)c1ccc(NCCN2CCCCCC2)cc1 [Example 492]', 'pIC50', 6.74),
  ('O=C(Nc1ccc(Cl)cc1)Nc1ccc(-c2ccccc2)c2c1C(=O)NC2 [Example 243]', 'pIC50', 5.41),
  ('COc1ccc(Nc2ccc(NC(=O)c3ccccc3)c3c2CNC3=O)cc1 [Example 416]', 'pIC50', 5.43);

# context switch: different molecule, same pIC50
Exercise: Supply measured pIC50 of O=C(Nc1ccc(Nc2ccccc2)c2c1C(=O)NC2)c1ccc(NCCCN2CCCC2)cc1 [Example 462] in your reply.
Solution: 6.54

====

log10 IC50, TBK1 (Homo sapiens), per-entry values.
Please be aware that the numbers have been log10-transformed from IC50 in nM.

INSERT INTO assay_data (compound, tgt, numeric_value) VALUES
  ('Nc1ccc(-c2ccnc3[nH]ccc23)c2c1C(=O)NC2 [Example 80]', 'TBK1 (Homo sapiens)', 3.97);

I would be grateful if you could provide log10 IC50 for each of the following entries.
1. CC(=O)Nc1ccc(-c2cnc3[nH]cc(-c4ccc(N)c5c4CNC5=O)c3c2)cc1 [Example 85]
2. CCCCNc1ccc(-c2ccnc(Nc3cccc(OC)c3)n2)c2c1C(=O)NC2 [Example 268]

Solution:
1. 1.86
2. 2.51

====

# tgt: TNIK (Homo sapiens, UniProt Q9UKE5)
# Construct: purchased Promega V4158
# assay name: ADP-Glo Kinase Assay, inhibition activity on TNIK
# Assay type: biochemical
# applied conditions: TNIK (μM)
reported metric: IC50 (µM)
Numbers only, in µM.

Exercise: Supply measured IC50 of O=C1NCc2c(-c3ccccc3)ccc(NCCCl)c21 in your reply.
Solution: 2.6

====

# tgt: TNIK (Homo sapiens, UniProt Q9UKE5)
# Construct: purchased Promega V4158
# assay name: ADP-Glo Kinase Assay, inhibition activity on TNIK
# Assay type: biochemical
# applied conditions: read-out: TNIK
pIC50: −log10 of the molar value.
Please use TRUE whenever pIC50 is not below 6, and FALSE whenever it is.

INSERT INTO results (molecule, discrete_label) VALUES
  ('CC(=O)NCCNc1ccc(C(=O)Nc2ccc(Nc3ccccc3)c3c2C(=O)NC3)cc1 [Example 485]', 'TRUE'),
  ('CSc1cccc(NC(=O)Nc2ccc(-c3ccccc3)c3c2C(=O)NC3)c1 [Example 241]', 'FALSE'),
  ('O=C(Nc1ccc(-c2cncnc2)c2c1C(=O)NC2)c1ccccc1 [Example 154]', 'FALSE'),
  ('O=C(Nc1ccc(-c2cccc3ncoc23)c2c1C(=O)NC2)c1ccc(NCCN2CCCCC2)cc1 [Example 342]', 'TRUE');

Exercise: Check if pIC50 >= 6 (inclusive). Item: O=C(Nc1ccc(-c2ccccc2O)c2c1C(=O)NC2)c1ccc(NCCO)cc1 [Example 353]
Solution: TRUE

Exercise: Check if pIC50 >= 6 (inclusive). Item: COc1ccccc1-c1ccc(NC(=O)c2ccccc2)c2c1C(=O)NC2=O [Example 277]
Solution: TRUE

Exercise: Check if pIC50 >= 6 (inclusive). Item: O=C(Nc1ccc(-c2ccccc2)c2c1C(=O)NC2)Oc1ccccc1 [Example 248]
Solution: FALSE

Exercise: Check if pIC50 >= 6 (inclusive). Item: CC(=O)c1ccc(NC(=O)Nc2ccc(-c3ccccc3)c3c2C(=O)NC3)cc1 [Example 237]
Solution: FALSE

Exercise: Check if pIC50 >= 6 (inclusive). Item: O=C1NCc2c(-c3ccccc3)ccc(NC(=S)Nc3ccccc3)c21 [Example 247]
Solution: FALSE

Exercise: Check if pIC50 >= 6 (inclusive). Item: O=C(Nc1ccc(-c2ccc(F)cc2)c2c1C(=O)NC2)c1ccccc1 [Example 205]
Solution: FALSE

Exercise: Check if pIC50 >= 6 (inclusive). Item: Cc1ccc(-c2ccc(N)c3c2CNC3=O)cc1 [Example 63, 7-Amino-4-(p-tolyl)isoindolin-1-one]
Solution: FALSE

Exercise: Check if pIC50 >= 6 (inclusive). Item: O=C1NCc2c(-c3ccccc3)ccc(NCc3ccccc3)c21 [Example 263, 7-(Benzylamino)-4-phenylisoindolin-1-one]
Solution: FALSE

Exercise: Check if pIC50 >= 6 (inclusive). Item: O=C1NCc2c(-c3ccccc3)ccc(NCCO)c21 [Example 256]
Solution: FALSE

====

Field: pIC50. Provide a value for each of the compounds that follow.
# tgt: TNIK (Homo sapiens, UniProt Q9UKE5)
# Construct: purchased Promega V4158
# assay name: ADP-Glo Kinase Assay, inhibition activity on TNIK
# Type: biochemical
# applied conditions: read-out: TNIK
Answers are plain numbers, as −log10 of the molar value.

Example compounds with recorded pIC50:
INSERT INTO measurements (compound, reported_metric, numeric_value) VALUES
  ('O=C(Nc1ccccc1)Nc1ccc(-c2ccccc2)c2c1C(=O)NC2 [Example 227]', 'pIC50', 5.92),
  ('O=C(Nc1ccc(Nc2cccc(Cl)c2)c2c1C(=O)NC2)c1ccc(NCCCN2CCCC2)cc1 [Example 457]', 'pIC50', 6.82),
  ('COc1ccccc1Nc1ccc(NC(=O)c2ccc(NCCCN3CCCCC3)cc2)c2c1CNC2=O [Example 478]', 'pIC50', 6.31),
  ('O=C(Nc1ccc(-c2cccs2)c2c1C(=O)NC2)c1ccc(NCCN2CCCCC2)cc1 [Example 374]', 'pIC50', 6.32),
  ('O=C(Nc1ccc(Nc2cccc(Cl)c2)c2c1C(=O)NC2)c1ccc(NCCN2CCCCC2)cc1 [Example 456]', 'pIC50', 6.47),
  ('O=C(Nc1ccc(-c2ccco2)c2c1C(=O)NC2)c1ccc(NCCO)cc1 [Example 292]', 'pIC50', 6.33),
  ('O=C(Nc1ccc(-c2ccco2)c2c1C(=O)NC2)c1ccc(NCCN2CCCCC2)cc1 [Example 289]', 'pIC50', 6.44),
  ('Cc1ccc(C)c(-c2ccc(NC(=O)c3ccccc3)c3c2CNC3=O)c1 [Example 31]', 'pIC50', 5.80);

I would be grateful if you could provide pIC50 for each of the following entries.
1. Cc1ccccc1Nc1ccc(NC(=O)c2ccc(F)cc2)c2c1CNC2=O [Example 426]
2. O=C(Nc1ccc(Nc2cnccn2)c2c1C(=O)NC2)c1ccc(F)cc1 [Example 429]

Solution:
1: 5.90; 2: 6.28
